ASSAYED_TARGET: Bos taurus trypsin 1 (T1) (Bos taurus, UniProt P00760)
Sequence (P00760 24-246): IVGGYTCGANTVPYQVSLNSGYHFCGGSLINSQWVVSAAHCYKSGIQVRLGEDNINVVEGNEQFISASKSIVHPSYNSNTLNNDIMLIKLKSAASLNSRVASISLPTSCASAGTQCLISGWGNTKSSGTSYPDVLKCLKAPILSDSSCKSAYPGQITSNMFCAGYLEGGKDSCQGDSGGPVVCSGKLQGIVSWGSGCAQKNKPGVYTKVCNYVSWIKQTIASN
ASSAY_PROTOCOL: Trypsin inhibition, Ki by Lineweaver-Burk analysis;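 note: trypsin activity followed by spectrophotometric hydrolysis kinetics of the chromogenic substrate BAPNA in Tris buffer, Ki obtained from double-reciprocal Lineweaver–Burk plots at several substrate concentrations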
MEASUREMENT_CONTEXT: K i [nM] (open)
*1 amine or outer side, *2 acyl side, *3 side chain or, on linkers, in order; H or OH if unused. Where a SMILES comes first, the peptide text is derived from it. Bridges are numbered along the chain shown (N, C = ends). Triazole bridges read from a SMILES are 1,4-linked. [ ]: non-standard residue; d: D form. X1 = Cc1sc(C(=O)[C@@H]2CCCN2[*:2])cc1C1=C(c2cc(C(=O)[*:1])sc2C)CCC1; Orn(N3) = [N-]=[N+]=NCCC[C@H](N)C(=O)O; Pra = C#CC[C@H](N)C(=O)O
Exercise: for every item that follows, state its recorded Ki.

Past entries and their recorded results:
Note to self: Ki recorded for CC[C@H](C)[C@@H]1NC(=O)[C@@H]2CCCN2C(=O)[C@@H]2CCCN2C(=O)[C@H]([C@@H](C)CC)NC(=O)[C@H](CO)NC(=O)[C@H](CCCCN)NC(=O)[C@H]([C@@H](C)O)NC(=O)[C@@H]2Cc3cn(nn3)CCC[C@H](NC1=O)C(=O)N[C@@H](CCCNC(=N)N)C(=O)N1CCC[C@H]1C(=O)c1cc(c(C)s1)C1=C(CCC1)c1cc(sc1C)C(=O)N[C@@H](Cc1ccccc1)C(=O)N2 [Peptide S7i] (F[Pra]TKSIPPI[Orn(N3)]R; triazole 2-10; linker N-C via X1) was 263 nM

CC[C@H](C)[C@@H]1NC(=O)[C@@H]2CCCN2C(=O)[C@@H]2CCCN2C(=O)[C@H]([C@@H](C)CC)NC(=O)[C@H](CO)NC(=O)[C@H](CCCCN)NC(=O)[C@H]([C@@H](C)O)NC(=O)c2cc(c(C)s2)C2=C(CCC2)c2cc(sc2C)C(=O)[C@@H]2CCCN2C1=O [Peptide S4] (TKSIPPI; linker N-C via X1) has a reported Ki of 22 nM

Next:
Ki reading for CC[C@H](C)[C@@H]1NC(=O)[C@@H]2CCCN2C(=O)[C@@H]2CCCN2C(=O)[C@H]([C@@H](C)CC)NC(=O)[C@H](CO)NC(=O)[C@H](CCCCN)NC(=O)[C@H]([C@@H](C)O)NC(=O)[C@@H]2CSSC[C@H](NC1=O)C(=O)N[C@@H](Cc1ccccc1)C(=O)N[C@@H](CC(C)C)C(=O)N1CCC[C@H]1C(=O)c1cc(c(C)s1)C1=C(CCC1)c1cc(sc1C)C(=O)N[C@@H](CCCNC(=N)N)C(=O)N2 [Peptide S9n] (RCTKSIPPICFL; disulfide 2-10; linker N-C via X1) : 8.3 nM
